Target: T1, human DLL3-his protein (human, UniProt Q9NYJ7 27-492)
T1 construct: also called human DLL3 protein; DLL3 antigen protein; not shown: His tag
T1 sequence: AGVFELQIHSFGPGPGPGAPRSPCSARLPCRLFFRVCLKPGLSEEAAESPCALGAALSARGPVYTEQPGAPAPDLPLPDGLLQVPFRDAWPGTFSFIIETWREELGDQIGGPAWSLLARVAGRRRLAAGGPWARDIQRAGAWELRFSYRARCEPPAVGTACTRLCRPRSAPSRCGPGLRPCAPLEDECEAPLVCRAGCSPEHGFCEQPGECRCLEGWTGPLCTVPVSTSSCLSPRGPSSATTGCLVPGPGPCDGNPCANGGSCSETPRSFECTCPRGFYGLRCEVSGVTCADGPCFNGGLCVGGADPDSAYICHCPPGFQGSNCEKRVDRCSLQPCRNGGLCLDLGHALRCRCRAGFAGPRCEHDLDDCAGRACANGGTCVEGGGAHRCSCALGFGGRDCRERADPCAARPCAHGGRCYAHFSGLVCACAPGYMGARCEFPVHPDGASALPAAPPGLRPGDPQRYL
Assay: ELISA
parameter: binding result

Hab009VL2aVH1-hFc (Fc fusion, humanized mab009, VL-linker-VH-human IgG1 Fc; not shown: linker; human IgG1 Fc fragment) scFv (part 1 of 2): DIVMTQSPLSLPVTPGEPASISCRASQTISDYLHWYLQKPGQSPRLLIKYASQSISGVPDRFSGSGSGTDFTLKISRVEAEDVGVYYCQQGHSFPLTFGQGTKLEIK scFv (part 2 of 2): EVQLVQSGAEVKKPGASVKVSCKASGYTFTSYWMHWVRQAPGQRLEWMGTIYPGNSDTRYNQKFKDRVTITADTSASTAYMELSSLRSEDTAVYYCTRSYDYGDLDYWGQGTTVTVSS: binds
Hab009VL3aVH1-hFc (Fc fusion, humanized mab009, VL-linker-VH-human IgG1 Fc; not shown: linker; human IgG1 Fc fragment) scFv (part 1 of 2): DIVMTQSPLSLPVTPGEPASISCRASQTISDYLHWYLQKSHQSPQLLIKYASQSISGVPDRFSGSGSGTDFTLKISRVEAEDVGVYYCQQGHSFPLTFGQGTKLEIK scFv (part 2 of 2): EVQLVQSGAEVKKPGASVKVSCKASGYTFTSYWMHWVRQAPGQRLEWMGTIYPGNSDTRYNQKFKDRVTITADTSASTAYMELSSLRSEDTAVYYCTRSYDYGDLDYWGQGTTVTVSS: binds
Hab015VL4VH1a-hFc (Fc fusion, humanized mab015, VL-linker-VH-human IgG1 Fc; also called Hab015L4H1a; not shown: linker; human IgG1 Fc fragment) scFv (part 1 of 2): NIVLTQSPATLSLSPGERATLSCKASENVGTYVSWFQQKPGQSPRLLIYGASNRYTGIPARFSGSGSGTDFTLTISSLEPEDFAVYYCGQFYSFPSTFGGGTKVEIK scFv (part 2 of 2): EVQLVESGGGLVKPGGSLRLSCAASGITFSNFWMNWVRQAPGKGLEWVGQIRLKSDDYATHYAESVKGRFTISREDSKNTVYLQMNSLKTEDTAVYYCTTGYYFDYWGQGTTVTVSS: binds
